molecular target: CYP2C19 (Homo sapiens (Human)); test: CYP inhibition, CYP2C19; format: in vitro ADME; conditions: microsomes, metabolite 4′-hydroxy mephenytoin
Sequence (P33261 whole entry): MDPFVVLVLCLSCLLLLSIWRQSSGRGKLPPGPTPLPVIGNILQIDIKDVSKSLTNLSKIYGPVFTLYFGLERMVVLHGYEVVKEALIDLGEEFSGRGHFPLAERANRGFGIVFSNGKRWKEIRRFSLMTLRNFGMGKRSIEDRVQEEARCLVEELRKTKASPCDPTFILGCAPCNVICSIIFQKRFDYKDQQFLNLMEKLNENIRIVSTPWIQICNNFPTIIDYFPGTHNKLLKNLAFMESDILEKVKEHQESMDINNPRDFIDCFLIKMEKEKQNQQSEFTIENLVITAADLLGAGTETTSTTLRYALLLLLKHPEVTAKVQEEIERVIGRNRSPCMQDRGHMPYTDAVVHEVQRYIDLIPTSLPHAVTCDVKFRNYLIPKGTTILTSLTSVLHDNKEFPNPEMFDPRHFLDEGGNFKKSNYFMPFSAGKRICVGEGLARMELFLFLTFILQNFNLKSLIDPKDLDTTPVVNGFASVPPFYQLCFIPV
quantity.measured: IC50

Exercise: Please tell me: IC50 of O=C(c1ccncc1)C1CCCN(Cc2ccccc2)C1 (stereo not drawn) [IV-6] , system CYP2C19 (Homo sapiens (Human))?
Key: ≤ 5 µM

Exercise: Please tell me: IC50 of O=C(c1ccc(Cl)cc1)C1CCCN(C(=O)c2ccccc2)C1 (stereo not drawn) [Compound V-4] , system CYP2C19 (Homo sapiens (Human))?
Key: ≤ 5 µM

Now look at this one.
Exercise: Please tell me: IC50 of O=C(c1ncccn1)C1CCCN(Cc2ccccc2)C1 (stereo not drawn) [IV-7] , system CYP2C19 (Homo sapiens (Human))?
Key: > 50 µM

====

Listed molecules paired with reported inhibition at 1 µM
target: hERG (IKr current) (Homo sapiens (Human)); test: hERG inhibition, patch clamp (Port-a-Patch) on HEK cells stably transfected with the hERG clone, IKr current; type: cell-based; settings: human, HEK cells stably transfected with the hERG clone, pH 7.4, IKr current, 1 μM; read-out: Percent Inhibition Trial II
# value in %; strip the unit string

These recorded examples may help you get a feel for the data.
Exercise: Reported inhibition at 1 µM for O=C(c1ccncc1)C1CCCN(Cc2ccccc2)C1 (stereo not drawn) [IV-6] : what is it?
Key: 4.74

Exercise: Reported inhibition at 1 µM for O=C(c1ncccn1)C1CCCN(Cc2ccccc2)C1 (stereo not drawn) [IV-7] : what is it?
Key: 0

Others:
Exercise: Reported inhibition at 1 µM for O=C(c1ccc(Cl)cc1)C1CCCN(C(=O)c2ccccc2)C1 (stereo not drawn) [Compound V-4] : what is it?
Key: 10.2

====

target: hERG (IKr current) (Homo sapiens (Human), UniProt Q12809); assay: hERG inhibition, patch clamp (Port-a-Patch) on HEK cells stably transfected with the hERG clone, IKr current; format: cell-based; conditions: human, HEK cells stably transfected with the hERG clone, pH 7.4, IKr current, 30 μM; read-out: Percent Inhibition Trial I
Sequence (Q12809 whole entry): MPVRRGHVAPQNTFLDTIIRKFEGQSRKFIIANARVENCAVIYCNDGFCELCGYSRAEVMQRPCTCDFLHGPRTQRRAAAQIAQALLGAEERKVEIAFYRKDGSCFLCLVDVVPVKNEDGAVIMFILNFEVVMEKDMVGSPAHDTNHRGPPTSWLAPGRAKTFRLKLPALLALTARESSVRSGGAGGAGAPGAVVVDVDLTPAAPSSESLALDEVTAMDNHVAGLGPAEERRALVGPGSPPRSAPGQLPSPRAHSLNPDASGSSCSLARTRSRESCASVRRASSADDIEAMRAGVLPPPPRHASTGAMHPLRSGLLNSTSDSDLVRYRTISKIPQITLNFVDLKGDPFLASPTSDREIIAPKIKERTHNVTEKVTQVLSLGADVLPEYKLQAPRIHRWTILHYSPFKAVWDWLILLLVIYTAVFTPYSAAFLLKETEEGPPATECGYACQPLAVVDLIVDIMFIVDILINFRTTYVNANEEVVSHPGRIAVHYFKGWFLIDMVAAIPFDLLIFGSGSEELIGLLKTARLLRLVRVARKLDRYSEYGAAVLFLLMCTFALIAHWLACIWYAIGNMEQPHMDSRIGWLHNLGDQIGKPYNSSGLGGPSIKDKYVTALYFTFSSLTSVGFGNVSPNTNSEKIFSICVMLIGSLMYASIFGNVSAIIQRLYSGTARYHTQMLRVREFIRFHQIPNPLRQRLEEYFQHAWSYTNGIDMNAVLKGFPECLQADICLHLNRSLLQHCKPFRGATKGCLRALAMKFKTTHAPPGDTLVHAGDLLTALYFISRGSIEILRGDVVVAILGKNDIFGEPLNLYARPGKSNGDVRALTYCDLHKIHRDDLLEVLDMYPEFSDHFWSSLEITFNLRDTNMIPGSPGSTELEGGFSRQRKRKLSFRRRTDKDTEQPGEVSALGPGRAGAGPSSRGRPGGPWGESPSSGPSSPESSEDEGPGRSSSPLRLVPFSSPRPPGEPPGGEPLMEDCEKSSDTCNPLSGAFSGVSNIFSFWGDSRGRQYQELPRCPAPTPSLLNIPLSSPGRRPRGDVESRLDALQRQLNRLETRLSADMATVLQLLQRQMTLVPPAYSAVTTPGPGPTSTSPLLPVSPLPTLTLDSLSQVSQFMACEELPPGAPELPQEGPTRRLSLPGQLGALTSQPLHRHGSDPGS
quantity.measured: inhibition at 30 µM (%)
# value in %; strip the unit string

These recorded examples may help you get a feel for the data.
Exercise: Reported inhibition at 30 µM for O=C(c1ccncc1)C1CCCN(Cc2ccccc2)C1 (stereo not drawn) [IV-6] : what is it?
Key: 39.9

Exercise: Reported inhibition at 30 µM for O=C(c1ncccn1)C1CCCN(Cc2ccccc2)C1 (stereo not drawn) [IV-7] : what is it?
Key: 17.2

Others:
Exercise: Reported inhibition at 30 µM for O=C(c1ccc(Cl)cc1)C1CCCN(C(=O)c2ccccc2)C1 (stereo not drawn) [Compound V-4] : what is it?
Key: 39.5

====

Biological target: hERG (IKr current) (Homo sapiens (Human))
Experiment: hERG inhibition, patch clamp (Port-a-Patch) on HEK cells stably transfected with the hERG clone, IKr current
Type: cell-based
Conditions: human, HEK cells stably transfected with the hERG clone, pH 7.4, IKr current, 10 μM; read-out: Percent Inhibition Trial II
Protocol: HEK cells stably transfected with the hERG clone are maintained at 37±2° C. in a 5% CO2 incubator. The cells are initially revived and grown in DMEM/F12+GlutaMAX-I medium supplemented with 9% fetal bovine serum (FBS) and antibiotics (Penicillin 100 IU/mL Streptomycin 100 μg/mL) (complete medium). […] Once the stable current is attained (at least 2-5 minutes) vehicle control is added and the current measured till the stable current is achieved. […]
Listed compounds paired with reported inhibition at 10 µM
# value in %; strip the unit string

These recorded examples may help you get a feel for the data.
Exercise: Reported inhibition at 10 µM for O=C(c1ccncc1)C1CCCN(Cc2ccccc2)C1 (stereo not drawn) : what is it?
Key: 13.1

Exercise: Reported inhibition at 10 µM for O=C(c1ccc(Cl)cc1)C1CCCN(C(=O)c2ccccc2)C1 (stereo not drawn) : what is it?
Key: 19.8

Others:
Exercise: Reported inhibition at 10 µM for O=C(c1ncccn1)C1CCCN(Cc2ccccc2)C1 (stereo not drawn) : what is it?
Key: 0.54
